Reference source: PubChem BioAssay AID1963851

- Test system: 188146-221-R-J1-PDC complex spheroid viability
- assay comment: Anticancer human tumor 188146-221-R-J1-PDC patient-derived colon adenocarcinoma cell line growth inhibition [POLQ]
- reported conditions: second compound 10 µM; first compound 10 µM; active compounds read low
Collected viability, T/C values appear next to each entry.
measurement type: viability, T/C (%)

> print(dat)
                                   molecule  observed.measurement
1  O=C(c1cc(Cc2n[nH]c(=O)c3ccccc23)ccc1F)N1CCN(C(=O)C2CC2)CC1 + Cc1cccc(N(C)C(=O)C2C(O)CCN2c2nc(C)cc(C(F)(F)F)c2C#N)c1                  82.1
2  Nc1ccn(C2OC(CO)C(O)C2(F)F)c(=O)n1 (stereo not drawn) + Cc1cccc(N(C)C(=O)C2C(O)CCN2c2nc(C)cc(C(F)(F)F)c2C#N)c1                  11.4
3  CNCc1ccc(-c2[nH]c3cc(F)cc4c3c2CCNC4=O)cc1 + Nc1ccc(C#CCN(C(=O)Cc2ncc(C(F)(F)F)cc2C(F)(F)F)c2ccc(F)cc2)nn1                   130

* * *

- Tested on: 188146-221-R-J1-PDC complex spheroid viability
- assay comment: Anticancer human tumor 188146-221-R-J1-PDC cell line growth inhibition [POLQ];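 note: spheroids exposed to compounds for seven days; 100% = DMSO vehicle control viability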
- reported conditions: second compound 0.1 µM; first compound 0.1 µM; active compounds read low
Collected viability, T/C values appear next to each entry.

compound	viability, T/C (%)
COc1cccc(OCCCN)c1-c1cc(Nc2cnc(C#N)cn2)n[nH]1 + Cc1cccc(N(C)C(=O)C2C(O)CCN2c2nc(C)cc(C(F)(F)F)c2C#N)c1	30.7
Cn1ncnc1[C@H]1c2n[nH]c(=O)c3cc(F)cc(c23)N[C@@H]1c1ccc(F)cc1 + COC1C(OC(N)=O)C(O)C(Oc2ccc3c(O)c(NC(=O)c4ccc(O)c(CC=C(C)C)c4)c(=O)oc3c2C)OC1(C)C	86.8
O=C(Nc1ccc(O)c(NS(=O)(=O)c2ccc(F)cc2)c1)c1ccc(-c2ccccc2)cc1 + COC1C(OC(N)=O)C(O)C(Oc2ccc3c(O)c(NC(=O)c4ccc(O)c(CC=C(C)C)c4)c(=O)oc3c2C)OC1(C)C	104
CCc1c2c(nc3ccc(O)cc13)-c1cc3c(c(=O)n1C2)COC(=O)[C@]3(O)CC + Nc1ccc(C#CCN(C(=O)Cc2ncc(C(F)(F)F)cc2C(F)(F)F)c2ccc(F)cc2)nn1	18.5
CC[C@@]1(O)C(=O)OCc2c1cc1n(c2=O)Cc2cc3c(CN(C)C)c(O)ccc3nc2-1 + COC1C(OC(N)=O)C(O)C(Oc2ccc3c(O)c(NC(=O)c4ccc(O)c(CC=C(C)C)c4)c(=O)oc3c2C)OC1(C)C	66.5
C=CCn1c(=O)c2cnc(Nc3ccc(N4CCN(C)CC4)cc3)nc2n1-c1cccc(C(C)(C)O)n1 + Nc1ccc(C#CCN(C(=O)Cc2ncc(C(F)(F)F)cc2C(F)(F)F)c2ccc(F)cc2)nn1	117
CC(C)n1c(=O)n(C)c2cnc3cc(F)c(-c4ccc(OCCCN5CCCCC5)nc4)cc3c21 + Nc1ccc(C#CCN(C(=O)Cc2ncc(C(F)(F)F)cc2C(F)(F)F)c2ccc(F)cc2)nn1	107
O=c1[nH]cc(F)c(=O)[nH]1 + Cc1cccc(N(C)C(=O)C2C(O)CCN2c2nc(C)cc(C(F)(F)F)c2C#N)c1	96.7
C#Cc1c(F)ccc2cc(O)cc(-c3ncc4c(N5CC6CCC(C5)N6)nc(OCC56CCCN5CC(F)C6)nc4c3F)c12 (stereo unspecified) + Nc1ccc(C#CCN(C(=O)Cc2ncc(C(F)(F)F)cc2C(F)(F)F)c2ccc(F)cc2)nn1	105
COc1ccc([C@@H](O)c2cc(-c3ncnc4cc(N5CCOCC5)ccc34)c(F)cc2Cl)nn1 + COC1C(OC(N)=O)C(O)C(Oc2ccc3c(O)c(NC(=O)c4ccc(O)c(CC=C(C)C)c4)c(=O)oc3c2C)OC1(C)C	89.3
COc1cc2cc(C(=O)CCC(=O)O)sc2cc1OC + Cc1cccc(N(C)C(=O)C2C(O)CCN2c2nc(C)cc(C(F)(F)F)c2C#N)c1	100
O=c1[nH]cc(F)c(=O)[nH]1 + Nc1ccc(C#CCN(C(=O)Cc2ncc(C(F)(F)F)cc2C(F)(F)F)c2ccc(F)cc2)nn1	105
COc1cc(C2c3cc4c(cc3C(OC3OC5COC(C)OC5C(O)C3O)C3COC(=O)C23)OCO4)cc(OC)c1O (stereo unspecified) + COC1C(OC(N)=O)C(O)C(Oc2ccc3c(O)c(NC(=O)c4ccc(O)c(CC=C(C)C)c4)c(=O)oc3c2C)OC1(C)C	108
COc1cccc2c1C(=O)c1c(O)c3c(c(O)c1C2=O)CC(O)(C(=O)CO)CC3OC1CC(N)C(O)C(C)O1 (stereo unspecified) + COC1C(OC(N)=O)C(O)C(Oc2ccc3c(O)c(NC(=O)c4ccc(O)c(CC=C(C)C)c4)c(=O)oc3c2C)OC1(C)C	57.5
CC[C@@]1(O)C(=O)OCc2c1cc1n(c2=O)Cc2cc3c(CN(C)C)c(O)ccc3nc2-1 + Cc1cccc(N(C)C(=O)C2C(O)CCN2c2nc(C)cc(C(F)(F)F)c2C#N)c1	77.5
CCc1cc2c(N3CCc4c(cc(Cn5ccnc5)cc4-c4cn(C)nc4C(F)(F)F)C3=O)cc(C)nc2c(OC)n1 + Cc1cccc(N(C)C(=O)C2C(O)CCN2c2nc(C)cc(C(F)(F)F)c2C#N)c1	90.9
COc1cccc(OCCCN)c1-c1cc(Nc2cnc(C#N)cn2)n[nH]1 + COC1C(OC(N)=O)C(O)C(Oc2ccc3c(O)c(NC(=O)c4ccc(O)c(CC=C(C)C)c4)c(=O)oc3c2C)OC1(C)C	20.7
CC1COCCN1c1cc(C2(S(C)(=N)=O)CC2)nc(-c2ccnc3[nH]ccc23)n1 (stereo unspecified) + Cc1cccc(N(C)C(=O)C2C(O)CCN2c2nc(C)cc(C(F)(F)F)c2C#N)c1	98.3
C=CCn1c(=O)c2cnc(Nc3ccc(N4CCN(C)CC4)cc3)nc2n1-c1cccc(C(C)(C)O)n1 + COC1C(OC(N)=O)C(O)C(Oc2ccc3c(O)c(NC(=O)c4ccc(O)c(CC=C(C)C)c4)c(=O)oc3c2C)OC1(C)C	98
O=C(Nc1ccc(O)c(NS(=O)(=O)c2ccc(F)cc2)c1)c1ccc(-c2ccccc2)cc1 + Nc1ccc(C#CCN(C(=O)Cc2ncc(C(F)(F)F)cc2C(F)(F)F)c2ccc(F)cc2)nn1	119
C=CC(=O)N1CCN(c2nc(=O)n(-c3c(C)ccnc3C(C)C)c3nc(-c4c(O)cccc4F)c(F)cc23)C(C)C1 (stereo unspecified) + Nc1ccc(C#CCN(C(=O)Cc2ncc(C(F)(F)F)cc2C(F)(F)F)c2ccc(F)cc2)nn1	108

* * *

Collected viability, T/C values appear next to each entry.
- Test system: 188146-221-R-J1-PDC complex spheroid viability
- assay comment: Anticancer human tumor 188146-221-R-J1-PDC cell line growth inhibition [POLQ];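 note: spheroids exposed to compounds for seven days; 100% = DMSO vehicle control viability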
- reported conditions: second compound 0.1 µM; first compound 0.1 µM; active compounds read low
measurement type: viability, T/C

compound	measurement type	observed measurement
CCc1c2c(nc3ccc(O)cc13)-c1cc3c(c(=O)n1C2)COC(=O)[C@]3(O)CC + Cc1cccc(N(C)C(=O)C2C(O)CCN2c2nc(C)cc(C(F)(F)F)c2C#N)c1	viability, T/C	19.9%
Cn1ncnc1[C@H]1c2n[nH]c(=O)c3cc(F)cc(c23)N[C@@H]1c1ccc(F)cc1 + Cc1cccc(N(C)C(=O)C2C(O)CCN2c2nc(C)cc(C(F)(F)F)c2C#N)c1	viability, T/C	103%
COc1cccc2c1C(=O)c1c(O)c3c(c(O)c1C2=O)CC(O)(C(=O)CO)CC3OC1CC(N)C(O)C(C)O1 (stereo not given) + Cc1cccc(N(C)C(=O)C2C(O)CCN2c2nc(C)cc(C(F)(F)F)c2C#N)c1	viability, T/C	56.8%
CC[C@@]1(O)C(=O)OCc2c1cc1n(c2=O)Cc2cc3c(CN(C)C)c(O)ccc3nc2-1 + Nc1ccc(C#CCN(C(=O)Cc2ncc(C(F)(F)F)cc2C(F)(F)F)c2ccc(F)cc2)nn1	viability, T/C	74.9%
CCc1cc2c(N3CCc4c(cc(Cn5ccnc5)cc4-c4cn(C)nc4C(F)(F)F)C3=O)cc(C)nc2c(OC)n1 + COC1C(OC(N)=O)C(O)C(Oc2ccc3c(O)c(NC(=O)c4ccc(O)c(CC=C(C)C)c4)c(=O)oc3c2C)OC1(C)C	viability, T/C	101%

* * *

- System: 188146-221-R-J1-PDC complex spheroid viability
- assay comment: Anticancer human tumor 188146-221-R-J1-PDC cell line growth inhibition [POLQ];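 note: spheroids exposed to compounds for seven days; 100% = DMSO vehicle control viability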
- reported conditions: second compound 1 µM; first compound 0.0316 µM; active compounds read low
Collected viability, T/C values appear next to each entry.

molecule	readout units	viability, T/C
CC1COCCN1c1cc(C2(S(C)(=N)=O)CC2)nc(-c2ccnc3[nH]ccc23)n1 (stereo not given) + COC1C(OC(N)=O)C(O)C(Oc2ccc3c(O)c(NC(=O)c4ccc(O)c(CC=C(C)C)c4)c(=O)oc3c2C)OC1(C)C	%	97.1
COc1cccc(OCCCN)c1-c1cc(Nc2cnc(C#N)cn2)n[nH]1 + Nc1ccc(C#CCN(C(=O)Cc2ncc(C(F)(F)F)cc2C(F)(F)F)c2ccc(F)cc2)nn1	%	46.8
CCc1c2c(nc3ccc(O)cc13)-c1cc3c(c(=O)n1C2)COC(=O)[C@]3(O)CC + COC1C(OC(N)=O)C(O)C(Oc2ccc3c(O)c(NC(=O)c4ccc(O)c(CC=C(C)C)c4)c(=O)oc3c2C)OC1(C)C	%	42.9
CCc1c2c(nc3ccc(O)cc13)-c1cc3c(c(=O)n1C2)COC(=O)[C@]3(O)CC + Cc1cccc(N(C)C(=O)C2C(O)CCN2c2nc(C)cc(C(F)(F)F)c2C#N)c1	%	40.7
CC1COCCN1c1cc(C2(S(C)(=N)=O)CC2)nc(-c2ccnc3[nH]ccc23)n1 (stereo not given) + Nc1ccc(C#CCN(C(=O)Cc2ncc(C(F)(F)F)cc2C(F)(F)F)c2ccc(F)cc2)nn1	%	95.1
COc1cccc2c1C(=O)c1c(O)c3c(c(O)c1C2=O)CC(O)(C(=O)CO)CC3OC1CC(N)C(O)C(C)O1 (stereo not given) + COC1C(OC(N)=O)C(O)C(Oc2ccc3c(O)c(NC(=O)c4ccc(O)c(CC=C(C)C)c4)c(=O)oc3c2C)OC1(C)C	%	94.9
CCc1c2c(nc3ccc(O)cc13)-c1cc3c(c(=O)n1C2)COC(=O)[C@]3(O)CC + Nc1ccc(C#CCN(C(=O)Cc2ncc(C(F)(F)F)cc2C(F)(F)F)c2ccc(F)cc2)nn1	%	37.7
C=CC(=O)N1CCN(c2nc(=O)n(-c3c(C)ccnc3C(C)C)c3nc(-c4c(O)cccc4F)c(F)cc23)C(C)C1 (stereo not given) + COC1C(OC(N)=O)C(O)C(Oc2ccc3c(O)c(NC(=O)c4ccc(O)c(CC=C(C)C)c4)c(=O)oc3c2C)OC1(C)C	%	93.2
CC1COCCN1c1cc(C2(S(C)(=N)=O)CC2)nc(-c2ccnc3[nH]ccc23)n1 (stereo not given) + Cc1cccc(N(C)C(=O)C2C(O)CCN2c2nc(C)cc(C(F)(F)F)c2C#N)c1	%	101
Cn1ncnc1[C@H]1c2n[nH]c(=O)c3cc(F)cc(c23)N[C@@H]1c1ccc(F)cc1 + Cc1cccc(N(C)C(=O)C2C(O)CCN2c2nc(C)cc(C(F)(F)F)c2C#N)c1	%	89
